assay text: Clinical test in humans, three 30-min i.v. infusions 8 hours apart, plasma PK
Format: in vivo
run parameters: human, in vivo, iv, three 30-min i.v. infusions 8 h apart, 100 μg/kg each, GM, read-out: AUC0-t3
Ends that are not written are not given here.
readout kind: AUC
Don't forget the unit after the number, please.

Requested field: AUC. Item: AMVSEFLKQAWFIENEEQEYVQTLKSSKGGPGSAVSPYPTFNPSSDV-NH2 [Peptide 1] 1090 ng·h/mL

---

assay text: 14-day repeat IV dose toxicity study with toxicokinetic evaluation on Day 1 and 14 in dogs
Format: in vivo, beagle dogs
run parameters: dog, in vivo, iv, 3 mg/kg/day, IV 3.0 mg/kg/day, male, Day 1, read-out: T1/2
Ends that are not written are not given here.
readout kind: half-life (min)
Numbers only, in min.

Suppose we examine the substance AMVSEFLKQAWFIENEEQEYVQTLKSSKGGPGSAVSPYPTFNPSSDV-NH2 [Peptide 1] ; what half-life value has been reported? 6.01
